Listed below: pEC50 values for each entry.
- Test system: avian influenza virus A/GuangZhou/99 (H9N2)
- test description: organism not typed
- Assay type: cell-based
- condition description: MDCK
pEC50 (log units): -log10 of the concentration in mol/L.

- CN(/N=C/c1ccccc1C(=O)O)c1nc(-c2ccccc2Cl)cs1: 7.68

Memo: O=C(O)c1ccccc1/C=N/Nc1nc(-c2ccccc2Cl)cs1 , reported pEC50: 4.88

---

- System: avian influenza virus A/GuangZhou/99 (H9N2)
- test description: organism not typed
- Type: cell-based
- condition description: MDCK, read-out: A/GuangZhou/99(H9N2) EC50 (µM)
readout label: EC50 (µM)
Report as a plain number; the unit µM is understood.

Examples with their reported EC50 follow.
* Cc1ccc(/C=N/N(C)c2nc(-c3ccccc3Cl)cs2)c(C(=O)O)c1 | 1.37
* CCCN(/N=C/c1ccccc1C(=O)O)c1nc(-c2ccccc2Cl)cs1 | 2.38
* CCN(/N=C/c1ccccc1C(=O)O)c1nc(-c2ccccc2Cl)cs1 | 0.28
* CN(/N=C/c1ccccc1C(=O)O)c1nc(-c2ccccc2Cl)cs1 | 0.021

Query molecule follows.
Item: CN(/N=C/c1ccc(F)cc1C(=O)O)c1nc(-c2ccccc2Cl)cs1 | EC50: 3.2

---

- test description: in vitro
- condition description: Syrian hamster
readout label: CC50

// CC50 value for CN(/N=C/c1ccccc1C(=O)O)c1nc(-c2ccccc2Cl)cs1 : 85.8 µM

---

- Tested on: 2019-nCoV (2019BetaCoV/Wuhan/WIV04/2019 strain)
- test description: microbe, parasite or virus in culture
- Format: cell-based
- condition description: Severe acute respiratory syndrome coronavirus 2, Vero C1008, read-out: concentration at which replication efficiency of 2019-nCoV is inhibited by 50%
readout label: EC50 (nM)
Form entry: value (nM) — number only.

* CN(/N=C/c1ccccc1C(=O)O)c1nc(-c2ccccc2Cl)cs1 | 17

Could you now consider this next compound?
Value (EC50, 2019-nCoV (2019BetaCoV/Wuhan/WIV04/2019 strain)) for record O=C(O)c1ccccc1/C=N/Nc1nc(-c2ccccc2Cl)cs1 = 1550

---

- System: Ebola virus replicon
- test description: microbe, parasite or virus in culture
- Format: cell-based
- condition description: Zaire ebolavirus, BSR-T7/5, read-out: Ebola virus EC50 (µM)
readout label: EC50 (µM)
I only need the number, in µM, no unit after it.

Use these answered entries as a reference point.
* O=C(O)c1cc(F)ccc1/C=N/Nc1nc(-c2ccccc2Cl)cs1 | 0.97
* O=C(O)c1ccccc1/C=N/Nc1nc(-c2ccccc2Cl)cs1 | 11.4
* CN(/N=C/c1ccc(F)cc1C(=O)O)c1nc(-c2ccccc2Cl)cs1 | 0.32
* O=C(O)c1cc(C(F)(F)F)ccc1/C=N/Nc1nc(-c2ccccc2Cl)cs1 | 1.14

For record CN(/N=C/c1ccc(C(F)(F)F)cc1C(=O)O)c1nc(-c2ccccc2Cl)cs1 the listed EC50 is 49

// EC50 value for CC(C)N(/N=C/c1ccccc1C(=O)O)c1nc(-c2ccccc2Cl)cs1 : 5.35

EC50 in this record for CCC(C)N(/N=C/c1ccccc1C(=O)O)c1nc(-c2ccccc2Cl)cs1 (centres unmarked) : 89

Lab note: Cc1ccc(/C=N/Nc2nc(-c3ccccc3Cl)cs2)c(C(=O)O)c1 gave EC50 of 0.89

# EC50 (compound: CCN(/N=C/c1ccccc1C(=O)O)c1nc(-c2ccccc2Cl)cs1 ) is 0.13

Reported EC50 of CN(/N=C/c1ccccc1C(=O)O)c1nc(-c2ccccc2Cl)cs1 : 0.018

Note to self: EC50 recorded for CCCN(/N=C/c1ccccc1C(=O)O)c1nc(-c2ccccc2Cl)cs1 was 5.42

So, O=C(O)c1ccccc1/C=N/Nc1nc(-c2cc(Cl)ccc2Cl)cs1 ? Its EC50 was 5.4

GET /value?item= Cc1ccc(/C=N/N(C)c2nc(-c3ccccc3Cl)cs2)c(C(=O)O)c1 &field=EC50 returns 2.26

Recorded result, CCCC(C)N(/N=C/c1ccccc1C(=O)O)c1nc(-c2ccccc2Cl)cs1 (centres unmarked) , EC50: 97
